biological target: UniProtKB P05979
Sequence (P05979 25-600): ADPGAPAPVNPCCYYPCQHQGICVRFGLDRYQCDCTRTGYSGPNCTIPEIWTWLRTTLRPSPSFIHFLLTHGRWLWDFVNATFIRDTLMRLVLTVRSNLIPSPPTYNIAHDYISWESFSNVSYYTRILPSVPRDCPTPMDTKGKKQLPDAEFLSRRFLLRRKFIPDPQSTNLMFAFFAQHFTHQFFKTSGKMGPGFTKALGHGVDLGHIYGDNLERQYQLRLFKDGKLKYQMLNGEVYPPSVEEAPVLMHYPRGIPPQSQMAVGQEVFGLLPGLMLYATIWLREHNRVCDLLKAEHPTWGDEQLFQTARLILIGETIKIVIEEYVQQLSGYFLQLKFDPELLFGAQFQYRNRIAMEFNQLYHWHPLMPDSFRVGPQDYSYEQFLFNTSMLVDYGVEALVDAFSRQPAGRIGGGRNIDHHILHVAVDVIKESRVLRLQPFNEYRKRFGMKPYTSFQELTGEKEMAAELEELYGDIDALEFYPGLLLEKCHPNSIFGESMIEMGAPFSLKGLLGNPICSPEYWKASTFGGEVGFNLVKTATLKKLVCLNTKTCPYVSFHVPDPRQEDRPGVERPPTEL
quantity-name: IC50 (µM)

compound	subject-of-test	IC50 / µM
CC(=O)OC[C@H]1O[C@@H](OC(C)=O)[C@H](NC(=O)Cc2ccccc2Nc2c(Cl)cccc2Cl)[C@@H](OC(C)=O)[C@@H]1OC(C)=O [compound 3]	UniProtKB P05979	25.5
COc1ccc2c(c1)c(CC(=O)N[C@H]1[C@H](OC(C)=O)O[C@H](COC(C)=O)[C@@H](OC(C)=O)[C@@H]1OC(C)=O)c(C)n2C(=O)c1ccc(Cl)cc1 [compound 4]	UniProtKB P05979	24.9
